pIC50: −log10 of the molar value.
# merged literature set: pIC50 with IRAK4 (Homo sapiens (Human), UniProt Q9NWZ3)
Observable: pIC50

* CC(C)Nc1cc(-n2ncc3cc(C#N)cnc32)ncc1-c1cn(CC(F)F)cn1 | 7.80
* CC(C)Nc1c(C(=O)NC2CCOCC2)cnc2c1Oc1cc(C#N)ccc1O2 | 7.22
* CC(C)Nc1c(C(=O)NCCC(C)(C)O)cnc2c1[nH]c1cc(C#N)ccc12 | 8.42
* CN(C)C(=O)N1CCC(N2CC(n3cc(NC(=O)c4cccc(-c5cnn(C(C)(C)CN)c5)n4)c(C(F)F)n3)C2)CC1 | 9.24
* CS(=O)(=O)CCc1cn2cc(NC(=O)c3cccc(C(F)(F)F)n3)c(N3CCC(O)CC3)cc2n1 | 8.89
* CC(C)(O)C1C[C@@H](Nc2nc(Nc3ccccc3)ncc2-c2nc3ccccc3s2)[C@H](O)[C@@H]1O (stereo in doubt) | 7.80
* CC(C)Nc1cc(Nc2ccc3ncsc3c2)ncc1C(=O)N[C@H]1CC[C@H](C(=O)NC2(C#N)CC2)C1 | 8.00
* CC(C)Nc1c(C(=O)NCCN2CCOCC2)cnc2c1[nH]c1cc(C#N)ccc12 | 8.52
* CC(=O)N1CC(n2cnc(-c3cnc(-n4ncc5cc(C#N)cnc54)cc3NC(C)C)c2)C1 | 7.66
* CNc1cncc(-c2ccc3ncnc(N[C@H]4CC[C@H](N5CCC(F)(F)CC5)CC4)c3c2)c1 | 8.52
* CC(C)(O)[C@H](F)CNC(=O)c1cnc(Nc2ccn3nccc3n2)cc1Nc1ccc(S(C)(=O)=O)cc1 | 8.20
* CC(C)Nc1cc(-n2ncc3cc(C#N)cnc32)ncc1-c1cn(C2CN(C(=O)C(C)(C)C)C2)nn1 | 8.52
* CC(C)(O)[C@H](F)CNC(=O)c1cnc(-c2cnc3cc(C#N)cnn23)cc1NC1CC(F)(F)C1 | 8.40
* CCCn1cnc(-c2cnc(-n3ncc4cc(C#N)cnc43)cc2NC(C)C)c1 | 8.00
* CNC(=O)CCNC(=O)c1cnc2ccc(-c3cn[nH]c3)cc2c1NCC(F)F | 7.22
* COCCn1cc(NC(=O)c2cnn3ccc(N[C@@H]4CCCC[C@@H]4N)nc23)c(C(N)=O)n1 | 8.52
